B1: ACSBG2 (parent)
chain: TPMTIPEFFRESVNRFGTYPALAS

Variants of: B1
assay_info: protein stability index of a GFP-peptide fusion (GPS, HEK-293T) (PSI 1-6); higher = more stable;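 further: lentivirally expressed fusions sorted by FACS into six bins by GFP to DsRed ratio, PSI derived from sequencing read proportions per bin multiplied by bin number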
test_conditions: c terminus: a fixed tail appended

variant_description	protein stability index
F8T	2.8
E11R	1.99
R15H	2.14
F8R	2.39
A21I	2.23
F16L	2.11
R10G	2.37
E7G	2.14
A23P	2.2
Y19S	2.54
A21C	1.88
F16E	3.37
S24L	2.04
P6E	2.15
T1N	2.12
Y19D	3.44
R15T	2.57
P20E	2.4
P2Q	2.4
S24T	2.07
T1R	2.34
